- assayedTarget: T1, Human serum albumin (human, UniProt P02768 25-609)
- T1 construct: serum albumin, human; also called HSA; source: bought: Sigma
- assaySummary: ITC; VP-ITC calorimeter; peptide serially diluted and injected; KD by Microcal ORIGIN Ver. 5.0; method by refs 48, 49
- assayConditions: both partners purified
measureName: Kd (µM)
Could you give me the number in µM? Just the number is fine.

[in] For the binder MWQRPSSWIEGRLLTHTISRIAVSYQTKVNLL (P16, TNF α segment of amino acid residues 75-94, human; also called recombinant peptide RMP16) [RMP16, recombinant TNF α-derived polypeptide] , what Kd is on record?
[out] 0.822
